# SYSTEM_TESTED: UniProt O14684
# Sequence (O14684 whole entry): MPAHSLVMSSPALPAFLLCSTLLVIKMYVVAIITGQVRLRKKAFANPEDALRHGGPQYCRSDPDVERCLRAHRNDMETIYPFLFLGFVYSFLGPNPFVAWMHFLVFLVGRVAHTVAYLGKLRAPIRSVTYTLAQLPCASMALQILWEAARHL
# ASSAY_REMARKS: Inhibition of PGES-1 in IL-1beta stimulated human A549 cell microsomes using PGH2 as substrate assessed as suppression of PGE2 formation at 10 uM preincubated for 15 mins followed by substrate addition by reversed phase-HPLC analysis
Active and inactive are the calls of the source. The calls are words filed in the database; no cut-off is given here.
# output must be one of active, inactive

Solved entries (count: 5):
MOLECULE	CLASS_LABEL
O=C(/C=C/c1cc(O)c2c(c1)[C@@H](C(=O)OCCc1ccccc1)[C@H](c1ccc(O)c(O)c1)O2)OCCc1ccccc1 (racemic)	active
COC(=O)/C=C/c1cc(O)c2c(c1)[C@@H](C(=O)OC)[C@H](c1ccc(O)c(O)c1)O2 (racemic)	active
COc1ccc(/C=C/c2ccc3c(c2)[C@@H](c2ccc(OC)cc2)[C@H](c2ccc(O)cc2)O3)cc1 (racemic)	active
COc1cc([C@@H]2Oc3c(OC)cc(/C=C/c4cc(OC)c(OC)c(OC)c4)cc3[C@H]2c2cc(OC)c(OC)c(OC)c2)ccc1O (racemic)	active
CCCCOC(=O)/C=C/c1cc(O)c2c(c1)[C@@H](C(=O)OCCCC)[C@H](c1ccc(O)c(O)c1)O2 (racemic)	active

query: Assay result, entry CCOC(=O)/C=C/c1cc(O)c2c(c1)[C@@H](C(=O)OCC)[C@H](c1ccc(O)c(O)c1)O2 (racemic) — outcome?
result: active

query: Quick one: COc1cc(/C=C/c2ccc3c(c2)[C@@H](c2cc(OC)cc(OC)c2)[C@H](c2ccc(O)cc2)O3)cc(OC)c1 (racemic)
result: active

query: Quick one: C=Cc1ccc(/C=C/c2ccc3c(c2)[C@@H](c2ccc(C=C)cc2)[C@H](c2ccc(O)cc2)O3)cc1 (racemic)
result: inactive

All figures here come from ChEMBL document CHEMBL3751684.
